Would you kindly list growth for each of these compounds?
tested on: SK-OV-3 ovarian; experiment: NCI-60 one-dose screen, 48 h (100 = growth as untreated, 0 = no growth, -100 = all killed); conditions: 10 µM unless noted
About 83,000 compounds went through this panel and 20% of them were active in at least one assay; those are over-represented in the sample as a whole. Calls of active or inactive are those of the source. Rule for the calls: active = growth percent below 10; inactive = the rest.

>>> measured_result("COc1cc2c(cc1OC)C(=O)C(CC1CCN(C(=O)Nc3ccc(C)cc3)CC1)C2 (centres undefined)")
"98.5% (inactive)"
>>> measured_result("CCCCNc1nc(NC(C)(C)C)nc(NC(C)(C)C)n1")
"81.9% (inactive)"
>>> measured_result("COc1cc2nc(-c3cccc4cccnc34)nc(NC3CCN(Cc4ccccc4)CC3)c2cc1OC")
"-74.7% (active)"
>>> measured_result("O=C(NC1C(O)OC(CO)C(O)C1O)NS(=O)(=O)c1ccc(Cl)cc1 (centres undefined)")
"105% (inactive)"
>>> measured_result("CC(C)C[C@H](C(=O)N[C@@H](C)C(N)=O)N1CC=CCN(O)S1(=O)=O")
"108% [5 µM] (inactive)"
>>> measured_result("CCn1c(SCC(=O)Nc2cc(C(F)(F)F)ccc2Cl)nc2ccccc2c1=O")
"76.5% (inactive)"
>>> measured_result("O=C(c1ccccc1)N(CCc1ccc(Cl)cc1)C(=S)N(C(=O)c1ccccc1)c1ccccc1")
"120% (inactive)"
>>> measured_result("c1ccc(CNc2nc(Nc3ccccc3)nc3ccccc23)cc1")
"3.4% (active)"

--- query ---
Problem: Return reported growth; argument: "O=C(Nc1ccc(Cl)cc1)c1cc2ccccc2cc1OP(=O)(O)O"
Result: 19% (inactive)
